biological target: purified cynomolgus CD45 ectodomain (cynomolgus monkey); assay: BLI (Octet Red96), IgG on anti-human Fc sensor, 50 nM CD45 ectodomain, 1:1 fit
Sequence (chain, as listed by the source limits assumed, form in doubt): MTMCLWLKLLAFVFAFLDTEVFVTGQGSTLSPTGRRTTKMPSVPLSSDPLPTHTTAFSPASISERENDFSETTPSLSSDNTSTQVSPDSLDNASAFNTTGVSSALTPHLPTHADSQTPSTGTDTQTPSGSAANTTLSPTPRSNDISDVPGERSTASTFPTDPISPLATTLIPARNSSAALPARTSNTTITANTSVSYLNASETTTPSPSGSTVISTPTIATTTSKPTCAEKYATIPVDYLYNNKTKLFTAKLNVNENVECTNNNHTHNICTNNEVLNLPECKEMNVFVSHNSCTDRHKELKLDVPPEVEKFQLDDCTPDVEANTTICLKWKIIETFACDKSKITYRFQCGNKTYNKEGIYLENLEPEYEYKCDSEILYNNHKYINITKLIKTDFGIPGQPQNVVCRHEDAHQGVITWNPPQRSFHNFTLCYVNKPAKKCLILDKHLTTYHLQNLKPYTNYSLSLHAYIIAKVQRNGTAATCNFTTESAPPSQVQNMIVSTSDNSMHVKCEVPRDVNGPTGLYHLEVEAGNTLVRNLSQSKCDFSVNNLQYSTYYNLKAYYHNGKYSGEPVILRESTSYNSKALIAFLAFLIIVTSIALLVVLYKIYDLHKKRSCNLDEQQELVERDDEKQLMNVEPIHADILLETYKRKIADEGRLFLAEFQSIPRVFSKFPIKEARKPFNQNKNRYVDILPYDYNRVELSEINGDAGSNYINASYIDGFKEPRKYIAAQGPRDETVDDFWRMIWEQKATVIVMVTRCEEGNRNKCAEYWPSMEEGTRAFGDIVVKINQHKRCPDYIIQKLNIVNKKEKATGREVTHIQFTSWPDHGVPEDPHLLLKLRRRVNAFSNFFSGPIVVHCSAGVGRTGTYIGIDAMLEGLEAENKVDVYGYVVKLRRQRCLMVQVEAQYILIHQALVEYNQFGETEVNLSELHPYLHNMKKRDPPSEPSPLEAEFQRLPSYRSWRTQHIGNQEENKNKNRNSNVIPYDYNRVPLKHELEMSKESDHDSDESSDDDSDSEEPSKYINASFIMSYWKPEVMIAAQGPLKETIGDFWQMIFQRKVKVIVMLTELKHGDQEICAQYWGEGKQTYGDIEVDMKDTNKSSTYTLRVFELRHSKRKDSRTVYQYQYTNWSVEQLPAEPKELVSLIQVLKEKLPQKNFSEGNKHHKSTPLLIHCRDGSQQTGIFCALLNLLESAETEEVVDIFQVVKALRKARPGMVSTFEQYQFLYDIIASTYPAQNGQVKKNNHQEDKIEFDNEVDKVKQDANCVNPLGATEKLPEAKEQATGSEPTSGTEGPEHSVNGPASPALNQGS
quantity: koff
Report as: number unit

Antibody 7 (Ab7) (antibody, V domains shown) VH: QVQLVESGGGLVKPGGSLRLSCAASGFTFGGYSMNWVRQAPGKGLEWVSYISISGATITYADSVKGRFTISRDNAKNSLYLQMNSLRAEDTAVYYCARGGQYYYDSSDYGEVAFDIWGQGTMVTVSS VL: DIVMTQSPLSLPVTPGEPASISCRSSQSLVSSGYNYLDWYLQKPGQSPQLLIYFGSSRASGVPDRFSGSGSGTDFTLKISRVEAEDVGVYYCMQRRRTPPFTFGGGTKVEIK: 0.000537 s⁻¹

Then this binder:
Answer with the recorded koff of Antibody 4 (Ab4) (antibody, V domains shown) VH: EVQLVESGGGLVQPGGSLRLSCAASGFTFEAYSMNWVRQAPGKGLEWVSYISLSGATIHYADSVKGRFTISRDNAKNSLYLQMNSLRAEDTAVYYCARGGQYYYTSSDYGEVAFDIWGQGTMVTVSS VL: DIVMTQSPLSLPVTPGEPASISCRSSQSLVSNGYNYLDWYLQKPGQSPQLLIYFGSSRASGVPDRFSGSGSGTDFTLKISRVEAEDVGVYYCMQRRRTPWSFGGGTKVEIK only. 7.89e-05 s⁻¹
